biological target: UniProtKB P59537; assay: Ca2+ flux assay, transiently transfected cells with Gα16-gust44; settings: PTC 100 μM, C4-HSL, aloin 300 μM, denatonium 1 mM, saccharin 6.7 mM
recorded-metric: calcium flux response of human TAS2R43

Request: Report calcium flux response of human TAS2R43 for CC[N+](CC)(CC(=O)Nc1c(C)cccc1C)Cc1ccccc1 [Denatonium, denatonium benzoate] please.
Response: responded

Request: Thanks! And O=C1c2c(O)cccc2C([C@@H]2O[C@H](CO)[C@@H](O)[C@H](O)[C@H]2O)c2cc(CO)cc(O)c21 (stereo partly shown) ?
Response: responded

* * *

target: human TAS2R43 (Homo sapiens, UniProt P59537); test: Ca2+ flux assay, transiently transfected cells with Gα16-gust44
Sequence (P59537 whole entry): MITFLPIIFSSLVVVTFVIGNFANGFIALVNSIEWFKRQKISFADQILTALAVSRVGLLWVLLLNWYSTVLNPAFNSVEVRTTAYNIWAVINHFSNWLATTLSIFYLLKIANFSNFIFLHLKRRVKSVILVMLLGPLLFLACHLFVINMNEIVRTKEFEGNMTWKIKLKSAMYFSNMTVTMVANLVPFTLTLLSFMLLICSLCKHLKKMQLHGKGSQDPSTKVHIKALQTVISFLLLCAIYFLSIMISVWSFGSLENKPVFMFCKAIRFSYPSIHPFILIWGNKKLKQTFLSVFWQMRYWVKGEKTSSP
Assignment: determine reported pEC50 for the given compounds.
One number for each entry, as −log10 of the molar value.

Request: So what does the record say about pEC50 for CC[N+](CC)(CC(=O)Nc1c(C)cccc1C)Cc1ccccc1 [Denatonium, denatonium benzoate] ?
Response: 2.92

More entries:
Request: Find the recorded pEC50 belonging to O=C1c2c(O)cccc2C([C@@H]2O[C@H](CO)[C@@H](O)[C@H](O)[C@H]2O)c2cc(CO)cc(O)c21 (some centres unmarked) and report it.
Response: 4.46
